- targetUnderTest: VIM-1 (Pseudomonas aeruginosa (strain ATCC 15692 / DSM 22644 / CIP 104116 / JCM 14847 / LMG 12228 / 1C / PRS 101 / PAO1))
- assayExplanation: biochemical
- testConditions: CCF2-FA fluorescence assay, 2 hours at 25° C.; read-out: VIM1 IC50
pIC50: −log10 of the molar value.
observedProperty: pIC50

compoundstring=NS(=O)(=O)c1c(S(=O)(=O)N[C@@H]2CCNC2)ccc(NCCN2CCOCC2)c1-c1nnn[nH]1 numericreadout=8.79
compoundstring=N.NC[C@@H](O)CNS(=O)(=O)c1ccc(N2CCN(CC(=O)O)CC2)c(-c2nnn[nH]2)c1S(N)(=O)=O numericreadout=7.79
compoundstring=NC(=O)[C@@H]1CN(c2ccc(S(=O)(=O)N[C@@H]3CCNC3)c(S(N)(=O)=O)c2-c2nn[nH]n2)CCN1 numericreadout=9.36
compoundstring=NS(=O)(=O)c1c(S(=O)(=O)N[C@@H]2CCNC2)ccc(N2CC[C@H](CO)C2)c1-c1nnn[nH]1 numericreadout=9.28
compoundstring=NCCN1CCN(c2ccc(S(=O)(=O)NC[C@H](O)CN)c(S(N)(=O)=O)c2-c2nn[nH]n2)CC1=O numericreadout=9.55
compoundstring=CNCC1CCN(c2ccc(S(=O)(=O)N[C@@H]3CCNC3)c(S(N)(=O)=O)c2-c2nnn[nH]2)CC1 numericreadout=9.35
compoundstring=NC[C@@H](O)CNS(=O)(=O)c1ccc(N2CCC3(CC2)CNC(N)=N3)c(-c2nn[nH]n2)c1S(N)(=O)=O numericreadout=9.04

FYI, the data here is from patent US11207312B2.
